- Target or system: Alpha glucosidase (Homo sapiens, UniProt O43451+P10253+P14410+Q2M2H8)
- Assay remarks: Inhibition of alpha-glucosidase (unknown origin) using p-nitro-phenyl-alpha-D-glucopyranoside as substrate preincubated for 5 mins with substrate followed by enzyme addition measure after 15 mins by spectrophotometric method
- Assay type: protein assay
Reported log10 IC50 values for the following compounds.
Result type: log10 IC50 (log10 of the value in µM)

{"columns": ["Compound", "log10 IC50"],
 "data": [
  ["CC1(C)CCc2cc(CC3=C(c4ccc(O)cc4)[C@@](O)(C(=O)O)OC3=O)ccc2O1", 0.88],
  ["COC(=O)[C@]1(Cc2ccc(O)c(CC=C(C)C)c2)OC(=O)C(O)=C1c1ccc(O)cc1", 1.15],
  ["CC1(C)CCc2cc(CC3=C(c4ccc(O)cc4)C(O)OC3=O)ccc2O1 (centres undefined)", 1.13],
  ["COC(=O)[C@]1(Cc2ccc3c(c2)CCC(C)(C)O3)OC(=O)C(O)=C1c1ccc(O)cc1", 1.68],
  ["CO[C@H]1OC(=O)C(Cc2ccc(O)c(CC=C(C)C)c2)=C1c1ccc(O)cc1", 0.94],
  ["COC(=O)[C@]1(Cc2ccc3c(c2)C[C@@H](O)C(C)(C)O3)OC(=O)C(O)=C1c1ccc(O)cc1", 2.04],
  ["COC(=O)[C@@]1(O)OC(=O)C(Cc2ccc3c(c2)CCC(C)(C)O3)=C1c1ccc(O)cc1", 1.01]
]}

====

Reported IC50 values for the following molecules.
- Target or system: Alpha glucosidase (Homo sapiens, UniProt O43451+P10253+P14410+Q2M2H8)
- Assay remarks: Inhibition of alpha-glucosidase (unknown origin) using p-nitro-phenyl-alpha-D-glucopyranoside as substrate preincubated for 5 mins with substrate followed by enzyme addition measure after 15 mins by spectrophotometric method
- Format: protein assay
Result type: IC50

{"columns": ["Molecule", "Result type", "Reading"],
 "data": [
  ["CO[C@@H]1OC(=O)C(Cc2ccc(O)c(CC=C(C)C)c2)=C1c1ccc(O)cc1", "IC50", "9.98 µM"],
  ["COC(=O)[C@]1(Cc2ccc(O)cc2)OC(=O)C(O)=C1c1ccc(O)cc1", "IC50", "85.13 µM"],
  ["CC1(C)CCc2cc(CC3OC(=O)C(O)=C3c3ccc(O)cc3)ccc2O1 (stereo not drawn)", "IC50", "11.65 µM"]
]}

Values from ChEMBL document CHEMBL4184116
